Each entry below carries its reported % cells in cell cycle phase G2/M.
system: HeLa cells; experiment: Cell cycle assay in HeLa cells; assay type: cell-based, human; details: HeLa cells, 150 nM, 48 hours, relative to untreated control
In the oligonucleotide strings, read from the 5' end, every base follows the letter of its sugar. An asterisk marks phosphorothioate; unmarked linkages are phosphodiester. Other units and linkages are bracketed, terminal groups are in braces. A string of capitals states the bases alone. e = 2'-O-(2-methoxyethyl) (MOE); [5mC] = 5-methylcytosine; d = 2'-deoxy (DNA)

Known % cells in cell cycle phase G2/M results, listed for orientation:
340350 (antisense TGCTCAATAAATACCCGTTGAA; all 2'-MOE, all phosphorothioate, methylation of C not given here) [compound 340350]    112%
328759 (antisense eG*eA*eG*eG*eG*dA*dT*dT*dG*dT*dA*dT*dG*dA*dA*e[5mC]*eA*eT*e[5mC]*eT) [compound 328759]    203%
328744 (antisense e[5mC]*eG*eG*eA*eT*d[5mC]*d[5mC]*dT*dG*dT*dT*dA*d[5mC]*d[5mC]*dT*e[5mC]*eA*e[5mC]*e[5mC]*eA) [compound 328744]    213%

Reported % cells in cell cycle phase G2/M for 328403 (antisense eA*eG*eG*e[5mC]*e[5mC]*dT*dA*dT*dT*d[5mC]*d[5mC]*dT*dG*dT*dA*eG*e[5mC]*eA*eA*eA) [compound 328403] : what is it?
80%

Also, 341787 (antisense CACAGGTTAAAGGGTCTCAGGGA; all 2'-MOE, all phosphorothioate, methylation of C not given here) [compound 341787] please.
145%

Also, 328342 (e[5mC]*eA*eA*eT*eT*dG*d[5mC]*dG*d[5mC]*dT*dA*d[5mC]*dA*dG*dA*eA*e[5mC]*eT*eG*eT) [compound 328342] please.
138%

Also, 25691 (antisense eG*e[5mC]*e[5mC]*eA*eA*dG*dG*d[5mC]*dG*dT*dG*dA*d[5mC]*dA*dT*eG*eA*eT*eA*eT) [compound 25691] please.
113%

Also, 338797 (antisense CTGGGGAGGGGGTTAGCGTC; all 2'-MOE, all phosphorothioate, methylation of C not given here) [compound 338797] please.
115%

Also, 338666 (antisense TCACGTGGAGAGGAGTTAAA; all 2'-MOE, all phosphorothioate, methylation of C not given here) [compound 338666] please.
130%

Also, 327902 (antisense eG*eG*e[5mC]*eT*eG*eT*e[5mC]*eA*eA*eT*eT*e[5mC]*eA*eT*eA*eG*eG*eT*e[5mC]*eA*eG) [compound 327902] please.
93%

Also, 338833 (antisense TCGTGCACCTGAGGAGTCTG; all 2'-MOE, all phosphorothioate, methylation of C not given here) [compound 338833] please.
136%

Also, 338678 (antisense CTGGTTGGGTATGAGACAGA; all 2'-MOE, all phosphorothioate, methylation of C not given here) [compound 338678] please.
105%
